These measurements were taken from paper PMC6076261.

# assay: Pharmacokinetic assay, oral dosing
# Assay type: in vivo, BL/6 mice
# measurementSetup: female, BL/6, mouse, plasma; 100 and 200 mg/kg oral; read-out: time of maximum concentration
readoutName: Tmax (h)
One number for each entry, in h.

Form field Tmax, entry O=C(O)CCSC(SCCc1ccccc1)c1ccc(/C=C/c2ccnc3cc(Cl)ccc23)cc1 (stereo not shown) : 1

###

# assay: In vivo autophagy assay in GFP-LC3 mice
# measurementSetup: female, GFP-LC3, mouse, blood; 4 h after last dose; 100 or 200 mg/kg oral, 3 doses over two days; read-out: terminal blood levels
readoutName: concentration at 4 h
Please give the number followed by its unit.

concentration at 4 h measured on O=C(O)CCSC(SCCc1ccccc1)c1ccc(/C=C/c2ccnc3cc(Cl)ccc23)cc1 (stereo not shown) [LV-320] = 169 µM
